# Procedure Summary: NCI Yeast Anticancer Drug Screen. Data for the mlh1 rad18 strain (AID 175)
# Stated Conditions: S. cerevisiae mlh1 rad18 strain growth inhibition, hits give high values; at 50.0 µM unless noted
# Method: Growth inhibition of yeast strains with defined genetic alterations is measured as a screen for potential anti-cancer activity. Selected strains with alterations in DNA damage repair or cell cycle control were exposed to compounds and growth inhibition was measured relative to vehicle treated controls. The strain used in this assay is mlh1 rad18
The panel holds about 79,000 compounds, 15% with a hit somewhere; the sample as a whole holds those more often.
Classification field: yes (1) = growth inhibition at or over -10%; no (0) = growth inhibition under -10%.

Molecule | Label
CCCCCOC(=O)C#CC(=O)OCCCCC | yes (1)
CC(C)CNC(=O)c1ccccc1Cl | no (0)
O=[N+]([O-])c1cc(F)ccc1S(=O)(=O)c1ccccc1 | yes (1)
CCOC(C)C(Nc1ccc(C(=O)O)cc1)C(=O)Nc1ccc(C(=O)O)cc1 (stereo not drawn) | no (0)
COc1ccc(Cl)c2c(=O)c3ccccc3[nH]c12 | yes (1)
O=[N+]([O-])c1ccc(/C=C(/c2ccc([N+](=O)[O-])o2)S(=O)(=O)c2ccccc2)cc1 | yes (1)
CCCCCCCSCC(=O)OCC | yes (1)
CCC1CSC(NS(=O)(=O)c2ccc(N)cc2)=N1 (stereo not drawn) | yes (1)
Cc1ccc2cc(-c3ccccc3)[nH]c2c1 | no (0)
C[n+]1ccc(/C=N/O)cc1 | no (0)
Nc1ccc(NC(=O)Nc2ccccc2)cc1 | no (0)
CC(C)C(=O)NS(=O)(=O)c1ccccc1 | no (0)
O=C(Cl)C(=O)c1c[nH]c2ccccc12 | no (0)

----------
# Procedure Summary: NCI Yeast Anticancer Drug Screen. Data for the sgs1 mgt1 strain (AID 161);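 note: 0% = growth of cultures given vehicle only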
# Stated Conditions: S. cerevisiae sgs1 mgt1 strain, hits give high values; at 50.0 µM unless noted
This is part of a sample that, as a whole, favours compounds with a hit. Of some 79,000 tested, about 15% had one in any assay.

Compound | Units | growth inhibition
COc1ccccc1OC(=O)c1ccccc1 | % | -22.8
CNC(=O)OCc1c(COC(=O)NC)c(C)n(-c2ccc(Cl)cc2)c1C | % | 83.2
COc1ccc(C2OC3=C(Nc4ccccc4N3)C2=O)cc1 (configuration not stated) | % | 27.4
CCC(=O)Oc1ccc(C(=O)c2ccc(OC(=O)CC)cc2)cc1 | % | 13.8
COc1cccc(NC(=O)NCCCl)c1OC | % | 11.6
CC1(C)OC(=O)C(Cc2ccccc2)(Cc2ccccc2)C(=O)O1 | % | -11.8
N#CC1C(=O)C(=O)N(c2ccccc2)C1=O (configuration not stated) | % | -24.7
O=[N+]([O-])c1cc(Cl)ccc1S(=O)(=O)N1CCCc2cc(Cl)ccc21 | % | 64.8
CCOC(=O)/C(C)=C\C=C(\C)CCC=C(C)C | % | -2.45
Cc1[nH]n(-c2ccc(Cl)cc2)c(=O)c1N=Nc1cccc(C(F)(F)F)c1 | % | 2.1
CCOC(=O)CN(c1ccccc1)c1nc(=[N+](C)C)ss1 | % | 6.8
O=C1C(NCCc2cc(Br)c(O)c(Br)c2)=CC(=O)c2ncccc21 | % | 33.9

----------
# Procedure Summary: NCI Yeast Anticancer Drug Screen. Data for the mlh1 rad18 strain (AID 175)
# Stated Conditions: S. cerevisiae mlh1 rad18 strain growth inhibition; at 50.0 µM unless noted
This is part of a sample that, as a whole, favours compounds with a hit. Of some 79,000 tested, about 15% had one in any assay. Calls of active or inactive are those of the source. No stated cut-off is given here; in the data, active means growth inhibition above about 70%; inactive means the rest.
Outcome codes: y (active), n (inactive)

Compound | Label
CN(C)c1ccc(/C=C2\C[N+](C)(C)C/C(=C\c3ccc(N(C)C)cc3)C2=O)cc1 | n
CC(C)(C)CNCCO | n
NC(=S)/N=C(/c1nc2ccc(Cl)cc2[nH]c1=O)C(O)c1ccccc1Cl (configuration not stated) | n
COc1cccc2c(SC)c(C)[nH]c12 | n
O=c1c2ccccc2c(=O)c2c1c1c(=O)c3ccccc3c(=O)c1c1c(=O)c3ccccc3c(=O)c21 | n
CC[N+](CC)(CC)Cc1cn(S(=O)(=O)c2ccccc2)c2ccccc12 | n
O=C(OC1c2cccc3cccc(c23)C1O)c1ccccc1 (configuration not stated) | n
COc1ccc(-n2cnc3c2NC(C)(C)N=C3C(N)=O)c(OC)c1 | n
Nc1cc([N+](=O)[O-])ccc1C(=O)O | n
CN(C=O)c1c(F)cc(N=Nc2ccccc2)cc1F | n
C=CCC1(CN(C)C)CC/C(=C\c2ccc(Cl)cc2)C1=O (configuration not stated) | n
OCC1OC(n2cnc3c(/C=C(/O)c4ccccc4)ncnc32)C(O)C1O (configuration not stated) | n
CCN(CC)CCN(CC)C(=S)Nc1ccccc1 | n
C[N+]1(Cc2csc(-c3ccc(Cl)cc3)n2)CCCC1 | n
CC(=O)N(C)c1ccccc1 | n
C=C1C(=O)OC2CC1C(OC(C)=O)CC1(C)OC1CCC1(C)OC1CCC2(C)O (configuration not stated) | n
CC(C)OC(=O)Nc1cccc(Cl)c1F | n
CCN(CC)CCN1CC(=O)N2CCCCN2C(=O)C1 | n
CC(Sc1nc(N)nc2nc[nH]c12)C(=O)O (configuration not stated) | n
CC(=O)CC(C[N+](=O)[O-])c1ccccc1 (configuration not stated) | n
CCC(C(=O)O)C(=O)O.[NH2-].[NH2-].[Pt+2] | n
O=C1CCCC/C1=C/C=C/c1ccccc1 | n
COC(=O)Nc1ccc(Cc2ccc(NC(=O)OC)cc2)cc1 | n
CC1=NN2C(c3ccc([N+](=O)[O-])cc3)=CSC2=NC(C)(C)C1 | n
CC1CCC(OC(=O)CCC2CCCCC2)CC1 (configuration not stated) | n
O=Nc1ccc2ccccc2c1N=Nc1ccccc1C(=O)O | n
COC(=O)C1CCOC(C)N1C(=O)OC(C)(C)C (configuration not stated) | n
Oc1ccc(C(Cc2ccccc2)NCc2ccccc2)cc1 (configuration not stated) | n
CCN(CC)CCNc1cc(OC)c(OC)cc1[N+](=O)[O-] | n
Nc1ncnc(N)c1NC(=O)c1ccc2ccccc2c1 | n
CCOC(=O)c1nc2ccccc2nc1NCc1cc(OC)c(OC)c(OC)c1 | n
Cc1ccnc(NC#N)n1 | n
CCCC(=O)OC1CC(n2cc(F)c(=O)[nH]c2=O)OC1CO (configuration not stated) | n
Cn1c(O)c(N=NC(=O)Cc2c[nH]c3ccccc23)c2ccccc21 | n
CCOC(=O)C12CCCC1(O)N(NC(N)=O)C(C)=C2C(=O)OC (configuration not stated) | n
CCCCCCCCOC(=O)NC1c2ccccc2Oc2c(C)cccc21 (configuration not stated) | n
O=C(NC12CC3CC(CC(C3)C1)C2)C(=O)c1c[nH]c2ccc(Cl)cc12 | n
CN(Cc1cnc2nc(N)nc(N)c2n1)c1ccc(C(=O)NC(CCC(=O)OCc2c(Cl)cccc2Cl)C(=O)OCc2c(Cl)cccc2Cl)cc1 (configuration not stated) | n
COc1ccc2c(c1)[n+](=O)c(C(=O)CC(=O)C(=O)Nc1cccc(C)c1C)c(C)n2[O-] | n
Cc1ccc(NC(=O)Oc2ccc(C#N)cc2)c(C)c1 | n
CC1(c2ccccc2)CC/C(=C/c2ccccc2)C1=O (configuration not stated) | n
CN1C(=O)C/C(=C/[N+](=O)[O-])c2ccccc21 | n
Cc1nc2c(=O)[nH]c(=O)[nH]c2s1 | n
O=C(Cc1csc(-c2nc(CC(=O)NNc3ccccc3)cs2)n1)NNc1ccccc1 | n
C[N+]1(CC(=O)c2ccc(Cl)cc2)CCOCC1 | n
CC(=O)NC1C(OCc2ccccc2)OC(CO)C(O)C1OCC(=O)NC(C)C(=O)NC(CCC(=O)NCCCCCNc1c2ccccc2nc2cccc([N+](=O)[O-])c12)C(N)=O (configuration not stated) | y
Cc1nc(N(C)C)oc(=O)c1CCc1ccccc1 | n

The measurements presented in this section are drawn from PubChem BioAssay (NCI).
